Recorded Kd values for a group of compounds are listed next.
- Experimental Target: human RORγt ligand binding domain (RORγt LBD) (Homo sapiens (Human), UniProt P51449)
- Sequence (P51449 other isoform, or with tags, fused parts or gaps): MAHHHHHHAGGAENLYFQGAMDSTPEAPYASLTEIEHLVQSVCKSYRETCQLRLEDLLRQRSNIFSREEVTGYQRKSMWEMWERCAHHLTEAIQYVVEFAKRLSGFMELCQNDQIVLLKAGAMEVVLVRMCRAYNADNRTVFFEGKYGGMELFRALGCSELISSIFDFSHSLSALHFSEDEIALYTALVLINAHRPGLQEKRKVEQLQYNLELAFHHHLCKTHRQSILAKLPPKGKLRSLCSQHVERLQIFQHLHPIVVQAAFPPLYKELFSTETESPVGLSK
- Assay Summary: RORγt ThermoFluor® assay (thermal shift binding)
- Condition Label: read-out: ThermoFluor® Assay, Kd
Value Kind: Kd

[[record]]
compound = "C[C@H]1CCCN1C(=O)c1nc(C(=O)NCC(C)(C)O)sc1-c1cnc(NC2(C)CCC2)cc1C(F)(F)F [Example 77]"
test_result = "1.3 nM"

[[record]]
compound = "CC(C)(O)CNC(=O)c1nc(C(=O)N2CCC(F)CC2)c(-c2cnc(NCCC(F)(F)F)cc2C(F)(F)F)s1 [Example 8]"
test_result = "120 nM"

[[record]]
compound = "C[C@H](Nc1cc(C(F)F)c(-c2sc(C(=O)N[C@@H]3COC[C@@H]3O)nc2C(=O)N2CCC[C@@H]2C)cn1)C(F)(F)F (single isomer, unassigned) [Example 159]"
test_result = "22 nM"

[[record]]
compound = "CC[C@H](Nc1cc(C(F)F)c(-c2sc(C(=O)N[C@@H]3CC[C@@H]3O)nc2C(=O)N2CCC[C@@H]2C)cn1)C(F)(F)F (relative stereo) [Example 381]"
test_result = "6.7 nM"

[[record]]
compound = "CC(C)(O)CNC(=O)c1nc(C(=O)N2CCC(F)CC2)c(-c2cnc(NC3CCC(F)(F)C3)cc2C(F)(F)F)s1 (stereo not drawn) [Example 20]"
test_result = "52 nM"

[[record]]
compound = "CC[C@@H](Nc1cc(C(F)(F)F)c(-c2sc(C(=O)NCC(C)(C)O)nc2C(=O)N2CCC[C@@H]2C)cn1)C1CC1 (relative stereo) [Example 129]"
test_result = "3 nM"

